Target: RUNX1 (UniProt Q01196)
Sequence (Q01196 whole entry): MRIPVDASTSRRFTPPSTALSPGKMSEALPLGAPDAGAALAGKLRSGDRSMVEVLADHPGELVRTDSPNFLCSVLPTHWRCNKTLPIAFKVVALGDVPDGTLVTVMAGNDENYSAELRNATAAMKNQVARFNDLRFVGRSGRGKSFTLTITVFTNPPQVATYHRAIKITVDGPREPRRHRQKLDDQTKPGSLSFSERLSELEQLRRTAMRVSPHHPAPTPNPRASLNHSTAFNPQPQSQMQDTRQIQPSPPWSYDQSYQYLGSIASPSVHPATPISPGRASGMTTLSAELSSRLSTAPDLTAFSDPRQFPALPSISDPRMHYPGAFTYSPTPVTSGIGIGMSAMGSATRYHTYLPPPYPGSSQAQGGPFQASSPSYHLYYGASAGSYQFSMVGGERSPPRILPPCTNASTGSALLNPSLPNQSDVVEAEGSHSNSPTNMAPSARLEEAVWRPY
Assay: RUNX1 binding intensity (PBM fluorescence) in presence of ETS1, normalised to RUNX1-only experiment (arbitrary fluorescence units); higher = stronger binding
Details: RUNX1 concentration 2 nM; ETS1 concentration 25 nM
Give satisfied when the value for RUNX1 binding intensity is at least 2000. Give not satisfied when it is less.

{"columns": ["seq", "systemName", "classification"],
 "data": [
  ["ACGGGGAAGAACGGAAGTGGTTTCCATGATGGTCTG", "RUNX1 (UniProt Q01196)", "satisfied"]
]}

stdin: Test whether the sequence CTGCTGACCAAAACAGGATGTGGTCTACACAAAGTG records RUNX1 binding intensity of 2000 or higher.
stdout: satisfied

stdin: Record CCCCGCCTCTTCCGCTTCTGTGGTCTGATCTGCCTG ; criterion: RUNX1 binding intensity no lower than 2000. Met?
stdout: satisfied

stdin: Determine whether this sequence has RUNX1 binding intensity no lower than 2000: GGCATTCACTTCCGGTCTGGGGCCTGCGGCGGCGGC
stdout: satisfied

stdin: Textbook exercise: given the entry TGACTAAGACCGGAAGAAACCACAAAAACACAAAAA , state whether its RUNX1 binding intensity is greater than or equal to 2000.
stdout: satisfied

stdin: Could you please find out whether TATCTCCTATCTCCAGGAAGTGGTTAGCCCTAGGAG has RUNX1 binding intensity that meets 2000 or exceeds it?
stdout: not satisfied

stdin: Is it the case that GCCGGGCACTTCCTGTGGAGGCCGCAGCGGGTGCGC has RUNX1 binding intensity reaching or exceeding 2000?
stdout: not satisfied

stdin: Item CAACCCAAGGGGATGTGCTCACTGCGGTGAGGAGGC with RUNX1 binding intensity of 2000 or above?
stdout: not satisfied

stdin: Quick check: does CCGCCGACACACTTCCGGCGGCCACCACAGGGTATT have RUNX1 binding intensity greater than or equal to 2000?
stdout: not satisfied

stdin: Threshold query (RUNX1 binding intensity >= 2000) on TCGGCGGATATGAAAAAAAGTCCGTGGTCACGTGCA
stdout: not satisfied

stdin: Is RUNX1 binding intensity at least 2000? Consider GAAGCAGACAGGAAGTGGGTCTGAGCGGTGGAGGGA
stdout: not satisfied

stdin: Could you tell me if the measured RUNX1 binding intensity of TTGATTGGAGCAGGATGTGGTCAGAACAGTATGCAG reaches 2000 or more?
stdout: satisfied

----------
Entries annotated with measured ETS1 binding intensity
Biological target: ETS1 (UniProt P14921)
Sequence: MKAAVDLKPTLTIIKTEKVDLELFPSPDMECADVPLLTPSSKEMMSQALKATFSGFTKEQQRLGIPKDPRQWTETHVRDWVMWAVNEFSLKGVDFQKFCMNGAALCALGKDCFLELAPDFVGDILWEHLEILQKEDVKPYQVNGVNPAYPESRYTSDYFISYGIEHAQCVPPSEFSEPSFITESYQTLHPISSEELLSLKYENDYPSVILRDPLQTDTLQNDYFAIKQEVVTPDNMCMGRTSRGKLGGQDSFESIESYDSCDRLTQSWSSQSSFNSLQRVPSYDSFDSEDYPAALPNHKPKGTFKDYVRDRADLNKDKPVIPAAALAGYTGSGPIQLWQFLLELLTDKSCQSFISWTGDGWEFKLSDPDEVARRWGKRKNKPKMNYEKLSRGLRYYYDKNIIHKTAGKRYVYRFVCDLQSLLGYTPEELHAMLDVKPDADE
Assay: ETS1 binding intensity (PBM fluorescence), ETS1 alone (arbitrary fluorescence units); higher = stronger binding
Settings: ETS1 concentration 1 nM; RUNX1 concentration 0 nM
Please reply with the number alone, leaving off any unit.

Worked examples, 2 sequences total:
{"columns": ["seq", "ETS1 binding intensity"],
 "data": [
  ["CACTGATTAAGAGGAAGTGTGTGTGGTTATTACCGT", 1980],
  ["CAACTCACATCCTCTGGCAACAACCACTAATCCACT", 460]
]}

The sequence TGACTTCCGGTCCGTAGTGGGGCCTGCGGTGGGAGT showed ETS1 binding intensity equal to 3690

Measured ETS1 binding intensity of ACGACGTCCCGGAAGTGCTGCGGCAATGTTGCTCTT : 5570

The reported value for ACATTCTTCCGGTTGGACCTCCGCGGTCAGCGCTGT in terms of ETS1 binding intensity is 871

// ETS1 binding intensity value for TGAGGGGCTCGCCGGGAAATGTGGTTTAGCGGCCCT : 564

// ETS1 binding intensity lookup, sequence = CCAGAGCAGGATGTTCTGCTGTGGCTAGATAAGCCC , result: 907

TTCACTTCCACCACTTCCTGTGGGTTTTGTTCATCC has a reported ETS1 binding intensity of 3090
